Test: Subcutaneous pharmacokinetics, plasma by HPLC-MS/MS
Assay type: in vivo
Details: mouse, 4 mg/kg sc, POMC KO mice, n = 4
Reported half-life values for a set of compounds
Number in h, nothing else.

| compound | measureUnit | endpointValue |
| --- | --- | --- |
| CC[C@@H]1NC(=O)[C@H](CCCCN)NC(=O)[C@@H](Cc2c[nH]c3ccccc23)NC(=O)[C@H](Cc2ccc(O)cc2)NC(=O)[C@@H](NC(=O)[C@H](N)Cc2ccccc2)CSSC[C@@H](C(=O)N[C@H](C(N)=O)[C@@H](C)O)NC1=O [BIM-23023, reference compound] | h | 0.59 |

Read the next record carefully.
For record CCCN1C[C@H](CSCC(=O)NCCCC[C@@H](NC(=O)CSC[C@@H]2C[C@@H]3c4cccc5[nH]cc(c45)C[C@H]3N(CCC)C2)C(=O)N[C@H]2CSSC[C@@H](C(=O)N[C@H](C(N)=O)[C@@H](C)O)NC(=O)[C@H](CC)NC(=O)[C@H](CCCCN)NC(=O)[C@@H](Cc3c[nH]c4ccccc34)NC(=O)[C@H](Cc3ccc(O)cc3)NC2=O)C[C@@H]2c3cccc4[nH]cc(c34)C[C@H]21 [TBR-760] the listed half-life is 2.56

###

Test: Subcutaneous pharmacokinetics, plasma by HPLC-MS/MS
Assay type: in vivo
Conditions: mouse, 4 mg/kg sc, POMC KO mice, n = 4
Method: To study and compare the pharmacokinetic behavior of TBR-760, the DA analogue BIM-53097 and the SST analogue BIM-23023 solutions with appropriate concentrations were prepared as described earlier and mice were injected subcutaneously at time 0 with a dose of 4 mg/kg. Blood samples were collected at 15 and 30 minutes, and 1, 2, 4, 6, 8 and 24 hours after injection, and processed to obtain plasma. […] Pharmacokinetic parameters were calculated by noncompartmental analyses using WinNonLin (version 5.2).
Listing: AUC(0-inf) of selected molecules
Value expressed in ng·h/mL; do not type the unit.

| molecule | measureUnit | AUC(0-inf) |
| --- | --- | --- |
| CCCN1C[C@H](CSCC(=O)NCCCC[C@@H](NC(=O)CSC[C@@H]2C[C@@H]3c4cccc5[nH]cc(c45)C[C@H]3N(CCC)C2)C(=O)N[C@H]2CSSC[C@@H](C(=O)N[C@H](C(N)=O)[C@@H](C)O)NC(=O)[C@H](CC)NC(=O)[C@H](CCCCN)NC(=O)[C@@H](Cc3c[nH]c4ccccc34)NC(=O)[C@H](Cc3ccc(O)cc3)NC2=O)C[C@@H]2c3cccc4[nH]cc(c34)C[C@H]21 | ng·h/mL | 1880 |

Okay, now this molecule:
The measured AUC(0-inf) associated with CC[C@@H]1NC(=O)[C@H](CCCCN)NC(=O)[C@@H](Cc2c[nH]c3ccccc23)NC(=O)[C@H](Cc2ccc(O)cc2)NC(=O)[C@@H](NC(=O)[C@H](N)Cc2ccccc2)CSSC[C@@H](C(=O)N[C@H](C(N)=O)[C@@H](C)O)NC1=O [BIM-23023, reference compound] reads 2860

###

Experiment: Subcutaneous pharmacokinetics, plasma by HPLC-MS/MS
Type: in vivo
Details: mouse, 4 mg/kg sc, POMC KO mice, n = 4
experimentalReadout: Cmax (ng/mL)
Express the result in ng/mL but write the number alone.

| compound | measureUnit | endpointValue |
| --- | --- | --- |
| CC[C@@H]1NC(=O)[C@H](CCCCN)NC(=O)[C@@H](Cc2c[nH]c3ccccc23)NC(=O)[C@H](Cc2ccc(O)cc2)NC(=O)[C@@H](NC(=O)[C@H](N)Cc2ccccc2)CSSC[C@@H](C(=O)N[C@H](C(N)=O)[C@@H](C)O)NC1=O [BIM-23023, reference compound] | ng/mL | 2300 |

Next:
What the record says about CCCN1C[C@H](CSCC(=O)NCCCC[C@@H](NC(=O)CSC[C@@H]2C[C@@H]3c4cccc5[nH]cc(c45)C[C@H]3N(CCC)C2)C(=O)N[C@H]2CSSC[C@@H](C(=O)N[C@H](C(N)=O)[C@@H](C)O)NC(=O)[C@H](CC)NC(=O)[C@H](CCCCN)NC(=O)[C@@H](Cc3c[nH]c4ccccc34)NC(=O)[C@H](Cc3ccc(O)cc3)NC2=O)C[C@@H]2c3cccc4[nH]cc(c34)C[C@H]21 [TBR-760] : Cmax is 354
